target: Human Recombinant Matriptase 2 (Homo sapiens, UniProt Q8IU80); construct: purchased Enzo Life Sciences (an in-house preparation was also used) ALX-201-752-1; experiment: Matriptase 2 fluorescence based inhibition assay, Method A (100 mM TRIS pH 9, 1 mg/mL BSA); format: biochemical; settings: at 1 uM; Assay Used = A; read-out: Mar-2 % inhibition at 1 uM
Please go through the items and note down their inhibition at 1 µM.

Task: Respond only with inhibition at 1 µM recorded for N=C(N)c1ccc2c(N)c(C(=O)N3CCC4CCCCC4C3)n(CCS(=O)(=O)c3ccccc3)c2c1 (stereo not shown)
Result: 0 to 25%

Task: For CC(C)(C)c1ccc(Cn2c(C(=O)N3CC[C@H](F)C3)cc3ccc(C(=N)N)cc32)cc1 , write its inhibition at 1 µM.
Result: 25 to 50%

Task: Give inhibition at 1 µM for the following molecule: CCc1ccc(-c2cccc(Cn3c(C(=O)NC4CCC(N)CC4)cc4ccc(C(=N)N)cc43)c2)cc1 (stereo not shown)
Result: 25 to 50%

Task: Look up inhibition at 1 µM of N=C(N)c1ccc2cc(C(=O)N[C@H]3CCNC3)n(Cc3ccc(C(N)=O)cc3)c2c1 and report it.
Result: 25 to 50%

Task: Fill in inhibition at 1 µM for record N=C(N)c1ccc2cc(C(=O)N3CCCC4CCCCC43)n(CCS(=O)(=O)c3ccccc3)c2c1 (stereo not shown)
Result: 0 to 25%

Hi, could you look up inhibition at 1 µM for each item in my list?
1. N=C(N)c1ccc2cc(C(=O)N3CCc4ccccc4C3)n(Cc3ccc(-c4ccccc4)cc3)c2c1
2. CC(C)CCn1c(C(=O)N2CCC(CCN)CC2)c(N)c2ccc(C(=N)N)cc21

Result:
1. 0 to 25%
2. 25 to 50%

###

So I've got a bunch of compounds here, and I need their inhibition at 1 µM values.
Target: Human Recombinant Matriptase 2 (Homo sapiens)
Construct: purchased Enzo Life Sciences (an in-house preparation was also used) ALX-201-752-1
Sequence (Q8IU80 1-811): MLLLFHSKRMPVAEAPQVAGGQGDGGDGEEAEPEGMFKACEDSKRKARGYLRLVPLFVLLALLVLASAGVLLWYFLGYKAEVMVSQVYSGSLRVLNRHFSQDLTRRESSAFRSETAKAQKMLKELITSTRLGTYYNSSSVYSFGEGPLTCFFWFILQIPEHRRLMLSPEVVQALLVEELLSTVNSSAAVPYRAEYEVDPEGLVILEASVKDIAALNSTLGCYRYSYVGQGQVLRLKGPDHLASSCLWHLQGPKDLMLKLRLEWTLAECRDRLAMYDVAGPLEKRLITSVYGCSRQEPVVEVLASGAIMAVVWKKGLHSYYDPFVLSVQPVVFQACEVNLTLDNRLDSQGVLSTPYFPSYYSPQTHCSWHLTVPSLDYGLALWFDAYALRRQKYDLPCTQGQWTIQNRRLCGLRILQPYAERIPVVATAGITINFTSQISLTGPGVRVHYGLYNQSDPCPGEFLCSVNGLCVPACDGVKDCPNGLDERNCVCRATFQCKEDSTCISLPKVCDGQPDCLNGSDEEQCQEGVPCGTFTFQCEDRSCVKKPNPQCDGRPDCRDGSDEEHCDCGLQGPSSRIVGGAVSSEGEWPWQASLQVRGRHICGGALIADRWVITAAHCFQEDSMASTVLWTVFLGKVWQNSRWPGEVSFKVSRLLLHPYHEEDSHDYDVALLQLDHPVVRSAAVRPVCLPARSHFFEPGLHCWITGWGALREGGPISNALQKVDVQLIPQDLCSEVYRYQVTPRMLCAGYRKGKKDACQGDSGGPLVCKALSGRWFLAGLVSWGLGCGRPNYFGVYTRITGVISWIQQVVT
Test: Matriptase 2 fluorescence based inhibition assay, Method A (100 mM TRIS pH 9, 1 mg/mL BSA)
Format: biochemical
Settings: 1 uM; Assay Used A; read-out: Mar-2 % inhibition at 1 uM

See these solved cases before continuing.
Task: Consider the compound N=C(N)c1ccc2cc(C(=O)Nc3ccc(N4CCC(F)(F)C4)cc3)n(Cc3ccc(C(N)=O)cc3)c2c1 . State its measured inhibition at 1 µM.
Result: 25 to 50%

Task: Give me measured inhibition at 1 µM, please, for this compound: N=C(N)c1ccc2cc(C(=O)NC3CCC(F)(F)CC3)n(Cc3ccc(C(N)=O)cc3)c2c1
Result: 0 to 25%

Task: Item N=C(N)c1ccc2cc(C(=O)Nc3ccc(-c4ccccc4)cc3)n(Cc3ccc(C(N)=O)cc3)c2c1 : provide inhibition at 1 µM
Result: 0 to 25%

Look at each compound and report its inhibition at 1 µM.
1. N=C(N)c1ccc2cc(C(=O)NCC3CCOCC3)n(Cc3ccc(C(N)=O)cc3)c2c1
2. N=C(N)c1ccc2cc(C(=O)N[C@H](CO)c3ccccc3)n(Cc3ccc(C(N)=O)cc3)c2c1
3. N=C(N)c1ccc2cc(C(=O)Nc3cc(F)ccc3F)n(Cc3ccc(C(N)=O)cc3)c2c1
4. N=C(N)c1ccc2cc(C(=O)Nc3ccc4ncsc4c3)n(Cc3ccc(C(N)=O)cc3)c2c1
5. N=C(N)c1ccc2cc(C(=O)N[C@H]3CC[C@H](NC(=O)c4ccccn4)CC3)n(Cc3ccc(C(F)(F)F)cc3)c2c1
6. N=C(N)c1ccc2cc(C(=O)NC3CCC(N)CC3)n(Cc3ccc(OC(F)(F)F)cc3)c2c1 (stereo not drawn)
7. N=C(N)c1ccc2cc(C(=O)NCCc3ccccc3)n(Cc3ccc(C(N)=O)cc3)c2c1
8. N=C(N)c1ccc2cc(C(=O)Nc3ccnc(N4CCCC4)c3)n(Cc3ccc(C(N)=O)cc3)c2c1

Result:
["0 to 25%", "0 to 25%", "0 to 25%", "0 to 25%", "25 to 50%", "25 to 50%", "0 to 25%", "0 to 25%"]

// batch mode: one inhibition at 1 µM value per listed entry
1. N=C(N)c1ccc2cc(C(=O)N[C@H]3CC[C@H](N)CC3)n(Cc3cccnc3)c2c1
2. N=C(N)c1ccc2cc(C(=O)N[C@H]3CC[C@H](N)CC3)n(Cc3ccncc3)c2c1
3. N=C(N)c1ccc2cc(C(=O)NCC3CCC(F)(F)CC3)n(CCS(=O)(=O)c3ccccc3)c2c1
4. C[C@H](NC(=O)c1cc2ccc(C(=N)N)cc2n1Cc1ccc(C(N)=O)cc1)c1ccc(Cl)cc1

Result:
["25 to 50%", "25 to 50%", "0 to 25%", "0 to 25%"]

###

Exercise: state measured inhibition at 1 µM for each of the compounds provided.
target: Human Recombinant Matriptase 2 (Homo sapiens); construct: purchased Enzo Life Sciences (an in-house preparation was also used) ALX-201-752-1; experiment: Matriptase 2 fluorescence based inhibition assay, Method B (50 mM TRIS pH 7.5, 150 mM NaCl, 0.01% gelatin); assay type: biochemical; settings: 1 uM compound; Assay Used = B (Method B); read-out: Mar-2 % inhibition at 1 uM

Sample records with inhibition at 1 µM:
Task: For the compound CC(C)COC(=O)NC(=N)c1ccc2cc(C(=O)O)n(Cc3cccc4ccccc34)c2c1 , report inhibition at 1 µM.
Result: 0 to 25%

Task: Please report the measured inhibition at 1 µM for CCOC(=O)c1cc2ccc(C(=N)NC(=O)OCC(C)C)cc2n1Cc1cccc2ccccc12
Result: 0 to 25%

Task: Specify measured inhibition at 1 µM for N=C(N)c1ccc2cc(C(=O)N[C@H]3CC[C@H](N)CC3)n(Cc3cc(C(N)=O)cc4ccccc34)c2c1 .
Result: 50 to 75%

Task: Quickly give me recorded inhibition at 1 µM for CO/N=C(\N)c1ccc2cc(C(=O)OC)n(Cc3cccc4ccccc34)c2c1
Result: 0 to 25%

Task: Identify measured inhibition at 1 µM associated with N=C(N)c1ccc2cc(-c3nnnn3CCO)n(Cc3cccc4ccccc34)c2c1
Result: 75 to 100%

Task: // fetch inhibition at 1 µM given entry CC1CCCCN1CCCNC(=O)c1cc2ccc(C(=N)N)cc2n1Cc1cccc2ccccc12 (stereo not shown)
Result: 50 to 75%

Task: Please report the measured inhibition at 1 µM for N=C(N)c1ccc2cc(C(=O)N[C@H]3CC[C@H](NC(=O)NC(N)=O)CC3)n(Cc3cccc4ccccc34)c2c1
Result: 50 to 75%

Task: Report inhibition at 1 µM, nothing else, for this compound: CC1(O)CCC(OC(=O)c2cc3ccc(C(=N)N)cc3n2Cc2cc(Oc3ccccc3)cc3ccccc23)CC1 (stereo not shown)
Result: 0 to 25%

Task: Complete the entry with inhibition at 1 µM for N=C(N)c1ccc2cc(C(=O)O)n(C[C@H]3CCCc4ccccc43)c2c1 (racemic)
Result: 25 to 50%

Task: Quickly give me recorded inhibition at 1 µM for N=C(N)c1ccc2cc(C(=O)O)n(Cc3cc(Oc4ccc(-c5ccccc5)cc4)cc4ccccc34)c2c1
Result: 25 to 50%

I have 3 compounds here; please give me inhibition at 1 µM for each one.
1. COc1ccccc1Oc1cc(Cn2c(C(=O)N[C@H]3CC[C@H](N)CC3)cc3ccc(C(=N)N)cc32)c2ccccc2c1
2. N=C(N)c1ccc2cc(C(=O)N[C@H]3CC[C@H](N)CC3)n(Cc3cccc4cc(Oc5ccccc5)ccc34)c2c1
3. CC(C)(C)OC(=O)NC(=N)c1ccc2cc(C(=O)N[C@H]3CCCc4ccccc43)n(Cc3cccc4ccccc34)c2c1

Result:
1. 50 to 75%
2. 75 to 100%
3. 0 to 25%

Hi team, please reply with inhibition at 1 µM for each item in this list.
1. N=C(N)c1ccc2cc(C(=O)N[C@H]3CC[C@H](N)CC3)n(Cc3cc(Oc4ncccn4)cc4ccccc34)c2c1
2. N=C(N)c1ccc2cc(C(=O)N[C@H]3CC[C@H](Nc4ncccn4)CC3)n(Cc3cccc4ccccc34)c2c1
3. NCc1ccc2cc(C(=O)N[C@H]3CC[C@H](N)CC3)n(Cc3cc(Oc4ncccn4)cc4ccccc34)c2c1

Result:
75 to 100%
50 to 75%
50 to 75%

Hey, just so you know, these numbers are from patent US12428415B2.
